Experimental System: TACE (Homo sapiens)
Construct: made in house; host or cells: mammalian cells or insect cells
Sequence (P78536 215-824): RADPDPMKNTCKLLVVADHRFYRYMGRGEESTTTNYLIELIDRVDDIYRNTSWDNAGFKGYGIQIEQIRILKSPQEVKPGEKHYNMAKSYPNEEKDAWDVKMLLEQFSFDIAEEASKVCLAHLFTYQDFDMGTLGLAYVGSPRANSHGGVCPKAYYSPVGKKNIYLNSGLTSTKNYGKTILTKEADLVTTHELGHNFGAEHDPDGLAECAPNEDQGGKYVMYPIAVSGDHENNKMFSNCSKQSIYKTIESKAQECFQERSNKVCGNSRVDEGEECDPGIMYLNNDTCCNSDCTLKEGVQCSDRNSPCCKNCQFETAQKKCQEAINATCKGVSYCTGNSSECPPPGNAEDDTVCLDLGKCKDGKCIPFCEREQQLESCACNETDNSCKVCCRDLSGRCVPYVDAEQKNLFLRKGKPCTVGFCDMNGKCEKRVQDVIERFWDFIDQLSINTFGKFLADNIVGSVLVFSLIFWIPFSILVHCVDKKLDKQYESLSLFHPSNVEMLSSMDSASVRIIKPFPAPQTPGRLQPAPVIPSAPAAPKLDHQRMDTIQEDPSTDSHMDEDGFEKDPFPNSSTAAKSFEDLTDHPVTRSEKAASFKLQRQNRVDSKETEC
Test Details: TACE inhibition experiment (in vitro)
Format: biochemical
pIC50: −log10 of the molar value.
Each entry falls in a class defined on pIC50; the bands are one: < 7; two: ≥ 7 and < 8; three: ≥ 8

Reference set (3 entries):
>>> df
                                   molecule  qualitative_label
0  Cc1ccc2nc(C)cc(COc3ccc(S(=O)(=O)CC(CC4CCC(=NO)CC4)N(O)C=O)cc3)c2c1 (centres unmarked)              three
1  Cc1cc(COc2ccc(S(=O)(=O)CC(C3CCCN(C(=O)c4ccccc4)C3)N(O)C=O)cc2)c2ccccc2n1 (centres unmarked)                two
2  CCC(CC)C(=O)N1CC/C(=C\C(CS(=O)(=O)c2ccc(OCc3cc(C)nc4ccccc34)cc2)N(O)C=O)C(C)(C)C1 (centres unmarked)              three

[in] Please classify: Cc1cccc(C(CS(=O)(=O)c2ccc(OCc3cc(C)nc4ccc(F)cc34)cc2)N(O)C=O)n1 (centres unmarked)
[out] two

[in] Please classify: Cc1ccc(CCC(CS(=O)(=O)c2ccc(OCc3cc(C)nc4ccccc34)cc2)N(O)C=O)cc1 (centres unmarked)
[out] one

[in] Please classify: O=CN(O)C(CC1CCC(=NO)CC1)CS(=O)(=O)c1ccc(OCc2ccc3ccccc3n2)cc1 (centres unmarked)
[out] one

[in] Please classify: Cc1cc(C)cc(COc2ccc(S(=O)(=O)CC(C=C3CCC4(CC3)OCCO4)N(O)C=O)cc2)c1 (centres unmarked)
[out] one

[in] Please classify: COc1cc(C)cc(COc2ccc(S(=O)(=O)CC(C=C3CCC4(CC3)OCCO4)N(O)C=O)cc2)c1 (centres unmarked)
[out] one

---

Experimental System: Human MMP14 (Homo sapiens)
Reported Property: IC50 (µM)
Numeric only. Scale: µM

In [3]: df
Out[3]:
                                   molecule  endpoint_result
0  Cc1cc(COc2ccc(S(=O)(=O)CC(C3CCCN(C(=O)c4ccccc4)C3)N(O)C=O)cc2)c2ccccc2n1 (stereo not shown)               22

Now for a further molecule.
[in] Lookup: IC50 / Human MMP14 (Homo sapiens) / Cc1ccc(C(CS(=O)(=O)c2ccc(OCc3cc(C)nc4ccc(F)cc34)cc2)N(O)C=O)cn1 (stereo not shown)
[out] 64

---

Experimental System: TACE (Homo sapiens)
Construct: made in house; host or cells: mammalian cells or insect cells
Test Details: TACE inhibition experiment (in vitro)
Type: biochemical
Condition Details: concentration required for 50% inhibition of enzyme activity
Reported Property: IC50 (nM)
Numeric only. Scale: nM

Recorded results for 2 compounds are shown here.
>>> df
                                   compound  reported_property  endpoint_result
0  Cc1cc(COc2ccc(S(=O)(=O)CC(C=C3CCSCC3)N(O)C=O)cc2)c2ccccc2n1 (centres unmarked) [Example I-17]               IC50                3
1  Cc1cc(COc2ccc(S(=O)(=O)CC(CC3CCC4(CC3)OCCO4)N(O)C=O)cc2)c2ccccc2n1 (centres unmarked) [Example I-10]               IC50               60

[in] Given the compound Cc1cc(COc2ccc(S(=O)(=O)CC(C3CCC4(CC3)OCCO4)N(O)C=O)cc2)c2ccccc2n1 (centres unmarked) [Example I-28] , what is its reported IC50?
[out] 15

[in] Given the compound Cc1cc(COc2ccc(S(=O)(=O)CC(C=C3CCC(=O)CC3)N(O)C=O)cc2)c2ccccc2n1 (centres unmarked) [Example I-3] , what is its reported IC50?
[out] 3.5

[in] Given the compound Cc1cc(COc2ccc(S(=O)(=O)CC(C3CCC(=O)CC3)N(O)C=O)cc2)c2ccccc2n1 (centres unmarked) [Example I-11] , what is its reported IC50?
[out] 20

[in] Given the compound C[C@@H]1O[C@@H](CO)CN(S(=O)(=O)c2ccc(OCc3ccc(F)cc3)cc2)[C@H]1C(=O)NO [compound 2, reference compound] , what is its reported IC50?
[out] 5

[in] Given the compound Cc1cc(COc2ccc(S(=O)(=O)CC(C=C3CCN(CC(C)C)CC3)N(O)C=O)cc2)c2ccccc2n1 (centres unmarked) [Example I-24] , what is its reported IC50?
[out] 6

[in] Given the compound Cc1cc(COc2ccc(S(=O)(=O)N3CCSC(C)(C)[C@@H]3C(=O)NO)cc2)cc(C)n1 [compound 1, reference compound] , what is its reported IC50?
[out] 10

---

The compounds listed here are annotated with their IC50.
Experimental System: Human MMP13 (Homo sapiens)
Construct: purchased Chemicon CC068
Test Details: MMP13 inhibition experiment
Format: biochemical
Condition Details: concentration required for 50% inhibition of enzyme activity; read-out: IC50 value MMP-13
Numeric only. Scale: µM

Recorded results for 5 compounds are shown here.
In [3]: df
Out[3]:
                                   compound  endpoint_result
0  CCC(CC)CN1CCC(CC(CS(=O)(=O)c2ccc(OCc3cc(C)nc4ccccc34)cc2)N(O)C=O)CC1 (stereo not drawn)              1.4
1  Cc1cccc(C(CS(=O)(=O)c2ccc(OCc3cc(C)nc4ccccc34)cc2)N(O)C=O)c1 (stereo not drawn)               21
2  Cc1cncc(C(CS(=O)(=O)c2ccc(OCc3cc(C)nc4ccccc34)cc2)N(O)C=O)c1 (stereo not drawn)               26
3  COCc1cc(COc2ccc(S(=O)(=O)CC(C=C3CCC4(CC3)OCCO4)N(O)C=O)cc2)cc(C)n1 (stereo not drawn)               31
4  C=C1CCC(C(CS(=O)(=O)c2ccc(OCc3cc(C)nc4ccccc34)cc2)N(O)C=O)CC1 (stereo not drawn)              7.3

[in] Given the compound Cc1cc(COc2ccc(S(=O)(=O)CC(CC3CCN(S(C)(=O)=O)CC3)N(O)C=O)cc2)c2ccccc2n1 (stereo not drawn) , what is its reported IC50?
[out] 30

[in] Given the compound Cc1cc(COc2ccc(S(=O)(=O)CC(C3CCC(=NOC=O)CC3)N(O)C=O)cc2)c2ccccc2n1 (stereo not drawn) , what is its reported IC50?
[out] 10

[in] Given the compound Cc1cc(COc2ccc(S(=O)(=O)CC(C3CCC(=O)CC3)N(O)C=O)cc2)c2ccccc2n1 (stereo not drawn) , what is its reported IC50?
[out] 7

[in] Given the compound Cc1cc(COc2ccc(S(=O)(=O)CC(C=C3CCN(C(=O)OC(C)(C)C)CC3C)N(O)C=O)cc2)c2ccccc2n1 (stereo not drawn) , what is its reported IC50?
[out] 10

[in] Given the compound Cc1cc(COc2ccc(S(=O)(=O)CC(C=C3CCOCC3)N(O)C=O)cc2)c2ccccc2n1 (single isomer, unassigned) [Example I-33] , what is its reported IC50?
[out] 32

---

UniProtKB P50281: recorded pIC50 for assorted molecules
Scale: pIC50 equals -log10([C]), with [C] in mol/L.

In [3]: df
Out[3]:
                                   molecule  endpoint_result
0  Cc1ccc2nc(C)cc(COc3ccc(S(=O)(=O)CC(c4ccccc4C)N(O)C=O)cc3)c2c1 (stereo not shown)             4.26

Now for a further molecule.
[in] Given the molecule Cc1cc(COc2ccc(S(=O)(=O)CC(CC3CCC4(CC3)OCCO4)N(O)C=O)cc2)c2ccccc2n1 (stereo not shown) , what is its reported pIC50?
[out] 4.64

---

Experimental System: TACE (Homo sapiens)
Construct: made in house; host or cells: mammalian cells or insect cells
Test Details: TACE inhibition experiment (in vitro)
Format: biochemical
Reported Property: log10(IC50) (log10 of the value in nM)
// do not treat as linear: log10 of IC50, unit nM

In [3]: df
Out[3]:
                                   compound  experimental_system  endpoint_result
0  Cc1cc(COc2ccc(S(=O)(=O)CC([C@H]3CSC(=O)N3C)N(O)C=O)cc2)c2ccccc2n1 (stereo partly shown)  TACE (Homo sapiens)             0.81
1  Cc1ccc(C(C)(CS(=O)(=O)c2ccc(OCc3cc(C)nc4ccccc34)cc2)N(O)C=O)cc1 (stereo not shown)  TACE (Homo sapiens)             1.08

[in] Given the compound Cc1cc(COc2ccc(S(=O)(=O)CC(/C=C3\CCN(CC(C)C)CC3(C)C)N(O)C=O)cc2)c2ccccc2n1 (stereo not shown) , what is its reported log10(IC50)?
[out] 1.26

[in] Given the compound CCC(CC)CN1CCCC(C(CS(=O)(=O)c2ccc(OCc3cc(C)nc4ccccc34)cc2)N(O)C=O)C1 (stereo not shown) , what is its reported log10(IC50)?
[out] 1.70
